FYI, the data here is from patent US20240239878A1.

# study_system: T1, Cynomolgus monkey DLL3 antigen protein (Kactus Biosystems, Cat. No. CM103) (Cynomolgus monkey, UniProt Q9NYJ7 27-490 (human entry))
# T1 construct: also called cyno DLL3
# T1 chain: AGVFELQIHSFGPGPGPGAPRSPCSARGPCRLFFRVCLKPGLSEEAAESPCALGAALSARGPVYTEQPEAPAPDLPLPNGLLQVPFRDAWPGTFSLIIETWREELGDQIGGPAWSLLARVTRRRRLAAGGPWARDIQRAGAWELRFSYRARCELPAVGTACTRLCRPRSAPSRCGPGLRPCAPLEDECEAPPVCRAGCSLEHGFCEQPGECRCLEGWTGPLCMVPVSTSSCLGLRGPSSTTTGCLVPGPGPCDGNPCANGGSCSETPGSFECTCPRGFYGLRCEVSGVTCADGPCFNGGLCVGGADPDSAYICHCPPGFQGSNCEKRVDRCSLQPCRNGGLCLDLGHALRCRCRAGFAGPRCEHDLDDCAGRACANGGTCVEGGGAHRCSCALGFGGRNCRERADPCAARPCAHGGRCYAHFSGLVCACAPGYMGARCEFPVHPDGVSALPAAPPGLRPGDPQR
# assay_text: affinity assay with Cynomolgus monkey DLL3 antigen protein (kinetics; method not restated, Biacore as in Example 18 implied)
value_type: kon (M⁻¹ s⁻¹)

| binder | observed_result |
| --- | --- |
| H2-39E2D11-AS humanized antibody variant (antibody, V domains shown, Variant of H2-39E2D11; Its constant regions are not restated) VH: QVQLVQSGAEVKKPGASVKVSCKASGYTFISYWITWVRQAPGQGLEWMGDIYPGSGSTTNYNEKFKSRVTMTRDTSTSTVYMELSSLRSEDTAVYYCARETTVGGAYAMDYWGQGTLVTVSS VL: EIVLTQSPATLSLSPGERATLSCRASQSINNNLHWYQQKPGQAPRLLIKYVSQSISGIPARFSGSGSGTDFTLTISSLEPEDFAVYYCQQTASWPLTFGGGTKLEIK | 262000 |
| H2-39E2D11-QS humanized antibody variant (antibody, V domains shown, Variant of H2-39E2D11; Its constant regions are not restated) VH: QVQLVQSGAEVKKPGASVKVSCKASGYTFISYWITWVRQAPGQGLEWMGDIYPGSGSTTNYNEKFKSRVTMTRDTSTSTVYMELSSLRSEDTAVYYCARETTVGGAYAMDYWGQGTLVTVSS VL: EIVLTQSPATLSLSPGERATLSCRASQSINNNLHWYQQKPGQAPRLLIKYVSQSISGIPARFSGSGSGTDFTLTISSLEPEDFAVYYCQQTQSWPLTFGGGTKLEIK | 198000 |
| H2-39E2D11-NA humanized antibody variant (antibody, V domains shown, Variant of H2-39E2D11; Its constant regions are not restated) VH: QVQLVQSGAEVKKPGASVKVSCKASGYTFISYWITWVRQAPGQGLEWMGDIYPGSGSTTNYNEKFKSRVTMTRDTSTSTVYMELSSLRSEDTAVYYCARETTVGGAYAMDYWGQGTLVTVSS VL: EIVLTQSPATLSLSPGERATLSCRASQSINNNLHWYQQKPGQAPRLLIKYVSQSISGIPARFSGSGSGTDFTLTISSLEPEDFAVYYCQQTNAWPLTFGGGTKLEIK | 233000 |
